system: SK-MEL-28; assay: NCI tumour cell line growth inhibition, 48 h
The source made the active and inactive calls. Cut-off read from the data, not from the text of the source: active = GI50 up to about 1.1 µM and inactive = higher.
Bench note: report the call from true (1) = active, false (0) = inactive

These recorded examples may help you get a feel for the data.
- compound: "CN(C)C(=S)SCc1ccccc1"
  assigned.class: "false (0)"
- compound: "CN(C)CCNC(=O)Cn1cc([N+](=O)[O-])c(=O)c2ccccc21"
  assigned.class: "false (0)"
- compound: "COc1ccc2nc3cc(Cl)ccc3c(Sc3ccc([N+](=O)[O-])cc3C)c2c1"
  assigned.class: "false (0)"
- compound: "COc1ccccc1C1C(C(=O)O)=C(CO)Oc2cc3c(cc21)OCO3 (configuration not stated)"
  assigned.class: "false (0)"
- compound: "NS(=O)(=O)c1ccc(NC(NC(=O)C(C(F)(F)F)C(F)(F)F)(C(F)(F)F)C(F)(F)F)cc1"
  assigned.class: "false (0)"

Inquiry: Record request — test call for COC1/C=C/C(C)C(C(C)C(OC)C(C)CCC(=O)C(C)C(C/C=C/N(C)C=O)OC)OC(=O)C=CC2OC2(C)CC(OC)C(OC)C2=CC(=O)O[C@@H](C(C)C(OC)CC(OC)/C=C/C(C)C(O)C1)[C@H]2O (some centres not stated)
Reply text: true (1)

Inquiry: Record request — test call for Sc1nn2c(Cc3ccccc3)nnc2s1
Reply text: false (0)

Inquiry: Record request — test call for O=c1[nH]cc(NCCCl)c(=O)[nH]1
Reply text: false (0)

Inquiry: Record request — test call for O=C1NC(=O)/C(=C/c2ccc(S(=O)(=O)N/N=C/c3ccccc3)cc2)N1
Reply text: false (0)

Inquiry: Record request — test call for Cc1cc(Cl)ccc1/N=C1/NC(=O)C(CC(=O)Nc2cccc(C)c2C)S1 (configuration not stated)
Reply text: false (0)

Inquiry: Record request — test call for C=CC(Br)(CBr)CCC(Cl)C(C)C (configuration not stated)
Reply text: false (0)

Inquiry: Record request — test call for O=C1CCC(=O)N1CNc1cccc(NCN2C(=O)CCC2=O)c1
Reply text: false (0)

Ref: ChEMBL document CHEMBL1201862
